All values here come from PubChem BioAssay (NCI).

Tested on: SF-268 CNS
Assay: NCI tumour cell line growth inhibition, 48 h
Assignment: determine reported TGI for the given compounds.

// query TGI value for entry Cn1cc2c(n1)c(N/N=C/c1ccccc1)nn1nnnc21
> 100 µM

Then this compound: Oc1[nH]c2ccccc2c1N=NC1=NCCCCN1
> 100 µM

Then this compound: Cn1c(N2CCCC2)c(C=O)c(=O)n(C)c1=O
> 100 µM

Then this compound: Nc1ccc(C#Cc2cncnc2Nc2ccc(OCc3cccc(F)c3)c(Cl)c2)cc1
> 25 µM

Then this compound: COc1ccc(/C(Cl)=C(\C=O)c2ccc(F)cc2)cc1
89.3 µM

Then this compound: CN1N=C2c3ccccc3CC[C@H]2C1c1ccccc1 (stereo partly drawn)
> 100 µM

Then this compound: Cc1cc(C)c2c(n1)S(=O)(=O)N(CCCN1CCN(c3cccc(C(F)(F)F)c3)CC1)/C(=C(\O)c1ccccc1)C2=O
> 100 µM

Then this compound: NC1=NC(c2ccccc2)N=C(Nc2ccccc2)N1 (stereo not drawn)
> 100 µM

----------
Test system: MALME-3M melanoma
Experiment: NCI tumour cell line growth inhibition, 48 h
Assignment: determine reported TGI for the given molecules.
Give the value in µM but do not write µM after it.

// query TGI value for entry c1ccc2c(c1)CCc1c-2n(CCN2CCCCC2)c2ccccc12
40.3

Then this molecule: CCN1/C(=C/c2ccc3ccccc3[n+]2CC)C=Cc2ccccc21
6.89

Then this molecule: CS(=O)(=O)N1CCN(Cc2cc3nc(-c4cccc5[nH]ncc45)nc(N4CCOCC4)c3s2)CC1 (tested in a mixture with another compound)
1.99

----------
Test system: OVCAR-4 ovarian
Assay: NCI tumour cell line growth inhibition, 48 h
Assignment: determine reported TGI for the given compounds.

// query TGI value for entry COc1cc(/C=C/C(=O)c2cc(F)c(Cl)cc2Cl)cc(OC)c1OC
> 100 µM

Then this compound: CCc1cccc(CC)c1NC(=S)NC(=O)c1ccc(Br)cc1
> 50.4 µM

Then this compound: O=S(=O)(NC(=S)Nc1ccccc1)c1ccc(N2N=C3c4ccccc4CC3C2c2cccs2)cc1 (stereo not given)
> 100 µM

Then this compound: Nc1c(C(=O)c2cccc(OCCN3CCOCC3)c2)cnn1-c1ccc(F)cc1
> 25 µM

Then this compound: Cc1cc(N(CCC#N)CCC#N)ccc1/C=C(\NC(=O)/C=C/c1ccccc1)NC(=O)Nc1ccc(Cl)cc1
> 100 µM

----------
Test system: SK-MEL-5 melanoma
Assay: NCI tumour cell line growth inhibition, 48 h
Endpoint: TGI

Hello, I am looking for reported TGI with SK-MEL-5 melanoma for N/N=C1\c2ccccc2C2/C(=N\N)c3ccccc3C12 (stereo not drawn) . Could you help?
> 100 µM

Then this compound: NC1CC2C3CCC2C1C3=O (stereo not drawn)
> 100 µM

Then this compound: Cc1ccc(C(=O)CC(Cl)=C(Cl)Cl)cc1
> 100 µM

----------
Tested on: SNB-19 CNS
Experiment: NCI tumour cell line growth inhibition, 48 h; in the data active means GI50 below about 0.43 µM; inactive means the rest
Give your call using only these classes: active, inactive

Per the records of this test, what outcome belongs to CCCCCCCCOc1ccc(/C=N/Nc2cc(C)nc3ccc(Cl)cc23)cc1 ?
inactive

Then this molecule: C=C(CN1CCN(c2cccc(C(F)(F)F)c2)CC1)c1ccc(C(=O)Nc2ccccc2N)cc1
inactive

Then this molecule: COc1cc2c3c(n(CCN)c(=O)c2cc1OC)-c1cc2c(cc1C3=O)OCO2
inactive

Then this molecule: Nc1nc2ccc([C@@H]3Nc4ccc5[nH]ncc5c4[C@H]4[C@H]5CCC(C5)[C@H]43)cc2s1
inactive

Then this molecule: N#C/C(=C\c1ccc(Br)cc1)n1nnc2cccc(F)c21
inactive

Then this molecule: O=C(Oc1ccc([N+](=O)[O-])cc1)N1CCN(Cc2cccc(Oc3ccccc3)c2)CC1
inactive

Then this molecule: CCC(=O)OC1CCn2c1nc1c2C(=O)C(C)=C(N2CC2)C1=O (stereo not given)
active

Then this molecule: Cc1cc(S(=O)(=O)Nc2nc3ccsc3c(=O)n2Cc2ccco2)c(S)cc1Cl
inactive

Then this molecule: CN(C)c1ccc(/C=C/c2sc3ccc4ccccc4c3[n+]2C)cc1
inactive

Then this molecule: COc1ccc2cc(C(=O)/C=C/c3cccc(Cl)c3Cl)ccc2c1
inactive

Then this molecule: COC(=O)c1ccc(=O)c2nc3/c(=C/O)c(O)cc(=O)c3[nH]c12
inactive

Then this molecule: O=C1c2cccnc2-c2nc(/C=C/c3ccccc3)cc3c2c1nc1ccccc13
inactive

Then this molecule: CS(=O)(=O)N1CCN(Cc2cc3nc(-c4cccc5[nH]ncc45)nc(N4CCOCC4)c3s2)CC1 (tested in a mixture with another compound)
active

Then this molecule: O=C(Nc1cnn2ccc(N3CCC[C@@H]3c3cc(F)ccc3F)nc12)N1CC[C@H](O)C1
inactive

Then this molecule: N#C/C(=C/C=C(\Cl)c1ccc(Cl)cc1)C(N)=O
inactive

----------
Assignment: determine reported TGI for the given compounds.
Test system: MALME-3M melanoma
Assay: NCI tumour cell line growth inhibition, 48 h
Give the value in µM but do not write µM after it.

Hello, I am looking for reported TGI with MALME-3M melanoma for O=C1C(Cl)=C(Nc2ccc3cn[nH]c3c2)C(=O)c2ccccc21 . Could you help?
1.95

Then this compound: C[n+]1c2ccccc2c(CNC(CCC(N)=O)C(=O)O)c2ccccc21 (centres undefined)
10.6

Then this compound: CCOC(=O)CCC(NC(=O)c1ccc(CNc2nc3cc(N)cc(N)c3nc2-c2ccccc2)cc1)C(=O)OCC (centres undefined)
35.3

----------
Tested on: DU-145 prostate
Experiment: NCI tumour cell line growth inhibition, 48 h; in the data active means GI50 below about 0.43 µM; inactive means the rest
Give your call using only these classes: label 1 for active, label 0 for inactive

Per the records of this test, what outcome belongs to Nc1nc2ccc([C@@H]3Nc4ccc5[nH]ncc5c4[C@H]4[C@H]5CCC(C5)[C@H]43)cc2s1 ?
label 0

Then this compound: O=C1c2cccnc2-c2nc(/C=C/c3ccccc3)cc3c2c1nc1ccccc13
label 0

Then this compound: COc1ccc(/C=C(/C(=O)N2CCCC2)c2cc(OC)c(OC)c(OC)c2)cc1N
label 0

Then this compound: Nc1ccn([C@H]2C[C@@H](O)[C@@H](CO)S2)c(=O)n1
label 0

Then this compound: Nc1c(C(=O)c2cccc(OCCN3CCOCC3)c2)cnn1-c1ccc(F)cc1
label 0

Then this compound: C=C(CNCCc1ccc(O)cc1)[C@@H]1CC[C@]2(CO)CC[C@]3(C)[C@H](CC[C@@H]4[C@@]5(C)CCC(=O)C(C)(C)[C@@H]5CC[C@]43C)[C@@H]12
label 0

Then this compound: O=C(Oc1ccc([N+](=O)[O-])cc1)N1CCN(Cc2cccc(Oc3ccccc3)c2)CC1
label 0

Then this compound: N#C/C(=C\c1ccc(Br)cc1)n1nnc2cccc(F)c21
label 0

Then this compound: COc1cc(NN=C(c2ccc(O)cc2)c2ccc(O)cc2)c([N+](=O)[O-])cc1[N+](=O)[O-]
label 0

Then this compound: CC[N+](CC)=c1ccc2nc3c(cc(NCc4ccccc4)c4ccccc43)oc-2c1
label 1

Then this compound: COc1cc2c3c(n(CCCN4CCN(C)CC4)c(=O)c2cc1OC)-c1cc2c(cc1C3=O)OCO2
label 0

----------
Test system: SK-OV-3 ovarian
Assay: NCI tumour cell line growth inhibition, 48 h; in the data active = GI50 below about 0.43 µM; inactive = the rest
Give your call using only these classes: true (1) (active), false (0) (inactive)

Per the records of this test, what outcome belongs to CCOC(=O)/C=C1\SC(=Nc2ccc(C#N)cc2)N(CCN2C(=O)/C(=C/C(=O)OCC)SC2=Nc2ccc(C#N)cc2)C1=O ?
false (0)

Then this compound: CCC(=O)OC1CCn2c1nc1c2C(=O)C(C)=C(N2CC2)C1=O (stereo not drawn)
true (1)

Then this compound: Nc1nc2ccc([C@@H]3Nc4ccc5[nH]ncc5c4[C@H]4[C@H]5CCC(C5)[C@H]43)cc2s1
false (0)

Then this compound: Cc1ccc(S(=O)(=O)Oc2ccc3c4c(c(=O)oc3c2)CCCCC4)cc1
false (0)

Then this compound: COc1cc2c3c(n(CCN)c(=O)c2cc1OC)-c1cc2c(cc1C3=O)OCO2
false (0)

Then this compound: CCCCCCCCCCCCCC1=NCC[N+]1(CCO)Cc1ccccc1 (stereo not drawn)
false (0)

Then this compound: N#C/C(=C/C=C(\Cl)c1ccc(Cl)cc1)C(N)=O
false (0)

Then this compound: COc1ncc(-c2nc3c(n2C(C)C)[C@H](c2ccc(Cl)cc2)N(c2cc(Cl)cn(C)c2=O)C3=O)c(OC)n1
false (0)

----------
Tested on: ACHN renal
Test: NCI tumour cell line growth inhibition, 48 h
Assignment: determine reported TGI for the given molecules.

// query TGI value for entry CC1=C/C(=N/N2C(=O)/C(=C/c3ccc(Cl)cc3)N=C2c2ccccc2)CC(C)(C)C1
> 100 µM

Then this molecule: OC(c1cccs1)c1cc2ccccc2s1 (stereo not drawn)
> 10 µM

Then this molecule: NC1=NC(c2ccccc2)N=C(Nc2ccccc2)N1 (stereo not drawn)
> 100 µM

Then this molecule: Oc1cc(Cl)cc2cc(Br)cnc12
> 32.1 µM

Then this molecule: CC(C)(C)NC(NC(C)(C)C)=C(C(Cl)=C(Cl)Cl)[N+](=O)[O-]
> 100 µM

Then this molecule: CCOC(=O)CCC(C(=O)OCC)n1nc2ccc(Nc3c(C)[n+]([O-])c4cc(Cl)ccc4[n+]3[O-])cc2n1 (stereo not drawn)
> 100 µM

Then this molecule: O=c1nc2n(cc1/C=C\Br)C1CC(O)C(CO2)O1 (stereo not drawn)
> 100 µM

Then this molecule: CC(C)(C)c1cc(-c2ccc(-c3cc(C(C)(C)C)c(O)c(C(C)(C)C)c3)cc2)cc(C(C)(C)C)c1O
> 100 µM
